Provide the recorded CC50 for the entries that follow.
Test system: HT29 (colorectal adenocarcinoma)
Experimental Protocol: SRB cytotoxicity assay, HT29
Format: cell-based
Test Conditions: Homo sapiens, HT-29; 72 h, SRB; unit inferred; read-out: LC50 HT29

Looking up O=C(OCc1ccccc1)C(Cc1ccccc1)N1C[C@@H](Cc2ccccc2)N(C(=O)OCc2ccccc2)CC1=O (some centres unmarked) [Compound 15ab] , I see its CC50 listed as > 17.8 µM

Looking up C[C@@H]1C(=O)N(C[C@H](Cc2ccccc2)NC(=O)OCc2ccccc2)[C@]1(Cc1ccccc1)C(=O)OCc1ccccc1 [Compound 24a] , I see its CC50 listed as > 17.3 µM

Looking up C[C@@H]1C(=O)N(C[C@@H](Cc2ccccc2)NC(=O)OCc2ccccc2)[C@]1(Cc1ccccc1)C(=O)OCc1ccccc1 [Compound 29a] , I see its CC50 listed as > 17.3 µM

Looking up O=C(OCc1ccccc1)C(Cc1ccccc1)N1C[C@H](Cc2ccccc2)N(C(=O)OCc2ccccc2)CC1=O (some centres unmarked) [Compound 13ab] , I see its CC50 listed as > 17.8 µM

Looking up C[C@@H]1C(=O)N(C(Cc2ccccc2)C(=O)OCc2ccccc2)C[C@@H](Cc2ccccc2)N1C(=O)OCc1ccccc1 (some centres unmarked) [Compound 30ab] , I see its CC50 listed as > 17.3 µM

====

Tested on: PSN1 (pancreas adenocarcinoma)
Experimental Protocol: SRB cytotoxicity assay, PSN1
Assay type: cell-based
Test Conditions: 72 h, SRB; total growth inhibition; unit inferred
Structures can show the parent of a compound that is named as a salt.
Reported Metric: TGI PSN1

Looking up C[C@@H]1C(=O)N(C[C@H](Cc2ccccc2)NC(=O)OCc2ccccc2)[C@]1(Cc1ccccc1)C(=O)OCc1ccccc1 [Compound 24a] , I see its TGI PSN1 listed as > 17.3 µM

Looking up O=C(OCc1ccccc1)C(Cc1ccccc1)N1C[C@H](Cc2ccccc2)N(C(=O)OCc2ccccc2)CC1=O (stereo partly drawn) [Compound 13ab] , I see its TGI PSN1 listed as > 17.8 µM

Looking up COc1cccc2c1C(=O)c1c(O)c3c(c(O)c1C2=O)C[C@@](O)(C(=O)CO)C[C@@H]3O[C@H]1C[C@H](N)[C@H](O)[C@H](C)O1 [Doxorubicin.HCl, reference compound] , I see its TGI PSN1 listed as 0.48 µM

Looking up O=C(OCc1ccccc1)C(Cc1ccccc1)N1C[C@@H](Cc2ccccc2)N(C(=O)OCc2ccccc2)CC1=O (stereo partly drawn) [Compound 15ab] , I see its TGI PSN1 listed as > 17.8 µM

Looking up C[C@@H]1C(=O)N(C(Cc2ccccc2)C(=O)OCc2ccccc2)C[C@@H](Cc2ccccc2)N1C(=O)OCc1ccccc1 (stereo partly drawn) [Compound 30ab] , I see its TGI PSN1 listed as > 17.3 µM

Looking up C[C@@H]1C(=O)N(C[C@@H](Cc2ccccc2)NC(=O)OCc2ccccc2)[C@]1(Cc1ccccc1)C(=O)OCc1ccccc1 [Compound 29a] , I see its TGI PSN1 listed as > 17.3 µM

====

Counter-ions that a name gives are not always drawn.
Provide the recorded GI50 for the entries that follow.
Kindly answer with a numeric value in µM, unit omitted.

The recorded GI50 with HT29 (colorectal adenocarcinoma) for COc1cccc2c1C(=O)c1c(O)c3c(c(O)c1C2=O)C[C@@](O)(C(=O)CO)C[C@@H]3O[C@H]1C[C@H](N)[C@H](O)[C@H](C)O1 [Doxorubicin.HCl, reference compound] was 0.19

The recorded GI50 with HT29 (colorectal adenocarcinoma) for C[C@@H]1C(=O)N(C[C@@H](Cc2ccccc2)NC(=O)OCc2ccccc2)[C@]1(Cc1ccccc1)C(=O)OCc1ccccc1 [Compound 29a] was 7.11

====

Tested System: hTRPV1 channels (Homo sapiens)
Construct: expressed in transfected cells; host or cells: HEK (stably transfected)
Sequence (Q8NER1 whole entry): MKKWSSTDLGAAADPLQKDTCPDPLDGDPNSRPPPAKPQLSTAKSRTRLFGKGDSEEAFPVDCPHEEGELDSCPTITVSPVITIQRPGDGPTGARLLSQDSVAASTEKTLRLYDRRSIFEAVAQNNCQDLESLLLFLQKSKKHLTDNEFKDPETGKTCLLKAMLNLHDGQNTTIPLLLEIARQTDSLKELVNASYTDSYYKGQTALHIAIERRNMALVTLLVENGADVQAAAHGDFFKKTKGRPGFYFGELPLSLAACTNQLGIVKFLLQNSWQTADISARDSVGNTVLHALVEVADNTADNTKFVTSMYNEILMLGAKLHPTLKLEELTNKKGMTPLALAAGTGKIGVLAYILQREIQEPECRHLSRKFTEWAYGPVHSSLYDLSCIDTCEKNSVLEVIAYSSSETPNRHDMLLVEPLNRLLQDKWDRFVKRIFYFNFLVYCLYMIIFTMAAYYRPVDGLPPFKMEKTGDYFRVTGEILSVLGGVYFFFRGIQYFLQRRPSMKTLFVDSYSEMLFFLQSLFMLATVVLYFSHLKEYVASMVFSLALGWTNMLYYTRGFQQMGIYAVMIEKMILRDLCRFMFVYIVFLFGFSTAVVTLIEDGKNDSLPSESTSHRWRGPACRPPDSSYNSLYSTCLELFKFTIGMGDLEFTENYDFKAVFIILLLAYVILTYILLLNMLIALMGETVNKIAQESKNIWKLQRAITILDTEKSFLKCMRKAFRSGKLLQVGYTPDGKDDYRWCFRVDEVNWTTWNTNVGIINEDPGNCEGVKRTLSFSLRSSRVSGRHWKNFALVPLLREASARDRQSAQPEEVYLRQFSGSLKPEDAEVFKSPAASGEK
Experimental Protocol: Ca2+ microfluorometry in HEK cells expressing hTRPV1 (capsaicin)
Format: cell-based
Test Conditions: 50 µM compound, 1 µM capsaicin
Reported Metric: TRPV1 Blockade (%) 50 µM
Kindly answer with a numeric value in %, unit omitted.

Looking up O=C(OCc1ccccc1)C(Cc1ccccc1)N1C[C@H](Cc2ccccc2)N(C(=O)OCc2ccccc2)CC1=O (stereo partly drawn) [Compound 13ab] , I see its TRPV1 Blockade (%) 50 µM listed as 8.1

Looking up CC1C(=O)N(C[C@H](Cc2ccccc2)NC(=O)OCc2ccccc2)[C@@]1(Cc1ccccc1)C(=O)OCc1ccccc1 (stereo partly drawn) [Compound 25ab] , I see its TRPV1 Blockade (%) 50 µM listed as 4.3

Looking up CC1C(=O)N(C[C@@H](Cc2ccccc2)NC(=O)OCc2ccccc2)[C@@]1(Cc1ccccc1)C(=O)OCc1ccccc1 (stereo partly drawn) [Compound 31ab] , I see its TRPV1 Blockade (%) 50 µM listed as 12.1

Looking up O=C(OCc1ccccc1)C(Cc1ccccc1)N1C[C@H](Cc2ccccc2)N(C(=O)OCc2ccccc2)CC1=O (stereo partly drawn) [Compound 21ab] , I see its TRPV1 Blockade (%) 50 µM listed as 11.8

Looking up C[C@@H]1C(=O)N(C[C@@H](Cc2ccccc2)NC(=O)OCc2ccccc2)[C@]1(C)C(=O)OCc1ccccc1 [Compound 39a] , I see its TRPV1 Blockade (%) 50 µM listed as 3.2

Looking up C[C@@H]1C(=O)N(C[C@@H](Cc2ccccc2)NC(=O)OCc2ccccc2)[C@]1(Cc1ccccc1)C(=O)OCc1ccccc1 [Compound 29a] , I see its TRPV1 Blockade (%) 50 µM listed as 16.2

====

Tested System: rat TRPM8 channel (Rattus norvegicus, UniProt Q8R455)
Construct: expressed in transfected cells; host or cells: HEK293 (stably transfected)
Sequence (Q8R455 whole entry): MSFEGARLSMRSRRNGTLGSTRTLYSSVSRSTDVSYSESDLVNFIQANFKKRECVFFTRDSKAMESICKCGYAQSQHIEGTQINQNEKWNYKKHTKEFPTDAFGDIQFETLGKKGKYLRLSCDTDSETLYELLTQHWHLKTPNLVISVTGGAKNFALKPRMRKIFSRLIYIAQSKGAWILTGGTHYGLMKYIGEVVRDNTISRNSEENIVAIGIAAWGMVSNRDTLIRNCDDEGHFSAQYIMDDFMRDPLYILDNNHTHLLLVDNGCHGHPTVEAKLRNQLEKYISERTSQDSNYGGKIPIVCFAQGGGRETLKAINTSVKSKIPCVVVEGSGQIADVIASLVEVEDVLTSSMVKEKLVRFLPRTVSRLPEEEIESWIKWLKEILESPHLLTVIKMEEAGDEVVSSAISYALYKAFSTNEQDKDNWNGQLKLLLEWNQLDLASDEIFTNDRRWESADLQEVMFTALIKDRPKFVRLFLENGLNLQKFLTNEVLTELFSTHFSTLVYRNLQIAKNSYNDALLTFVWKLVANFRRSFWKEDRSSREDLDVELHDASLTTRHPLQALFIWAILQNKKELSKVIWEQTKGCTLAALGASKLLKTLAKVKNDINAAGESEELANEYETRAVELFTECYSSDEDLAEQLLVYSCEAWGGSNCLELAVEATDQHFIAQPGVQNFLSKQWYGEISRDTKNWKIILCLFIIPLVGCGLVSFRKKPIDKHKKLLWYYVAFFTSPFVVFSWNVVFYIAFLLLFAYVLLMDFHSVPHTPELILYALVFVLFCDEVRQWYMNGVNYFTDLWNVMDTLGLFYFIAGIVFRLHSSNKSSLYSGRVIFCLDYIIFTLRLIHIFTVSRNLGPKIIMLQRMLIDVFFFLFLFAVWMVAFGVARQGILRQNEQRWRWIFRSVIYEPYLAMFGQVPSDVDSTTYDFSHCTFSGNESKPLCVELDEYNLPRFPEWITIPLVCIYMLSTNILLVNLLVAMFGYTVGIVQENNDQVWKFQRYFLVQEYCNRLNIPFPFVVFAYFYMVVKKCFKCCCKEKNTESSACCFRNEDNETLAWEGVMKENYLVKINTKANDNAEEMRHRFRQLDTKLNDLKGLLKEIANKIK
Experimental Protocol: Ca2+ microfluorometry, menthol-induced Ca2+ influx in HEK293 cells expressing rat TRPM8
Format: cell-based
Test Conditions: 5 µM compound; 100 µM menthol; HEK-rTRPM8
Provide the recorded % Blockade 5 µM for the entries that follow.
Kindly answer with a numeric value in %, unit omitted.

Looking up C[C@H]1C(=O)N(C(Cc2ccccc2)C(=O)OCc2ccccc2)C[C@@H](Cc2ccccc2)N1C(=O)OCc1ccccc1 (stereo partly shown) [Compound 32ab] , I see its % Blockade 5 µM listed as 47.4

Looking up C[C@@H]1C(=O)N(C[C@@H](Cc2ccccc2)NC(=O)OCc2ccccc2)[C@]1(C)C(=O)OCc1ccccc1 [Compound 39a] , I see its % Blockade 5 µM listed as 46.6

Looking up O=C(OCc1ccccc1)C(Cc1ccccc1)N1C[C@H](Cc2ccccc2)N(C(=O)OCc2ccccc2)CC1=O (stereo partly shown) [Compound 13ab] , I see its % Blockade 5 µM listed as 48.9

Looking up C[C@@H]1C(=O)N(C(Cc2ccccc2)C(=O)OCc2ccccc2)C[C@@H](Cc2ccccc2)N1C(=O)OCc1ccccc1 (stereo partly shown) [Compound 30ab] , I see its % Blockade 5 µM listed as 101.7
